assayNotes: Visual Solubility Measurement
Assay type: physicochemical
assayConditions: organic solvent or mixture, thermodynamic from solid; 1-propanol, ambient temperature; read-out: Approximate Solubility
propertyMeasured: solubility

Find the recorded solubility belonging to COc1cccc(/C=N/N(C(=O)C(F)(F)F)c2ccc(C)cc2C)c1 [Form J147] and report it.
> 80 mg/mL

====

assayNotes: Visual Solubility Measurement
Format: physicochemical
assayConditions: organic solvent or mixture, thermodynamic from solid; acetone, ambient temperature; read-out: Approximate Solubility
propertyMeasured: solubility

Find the recorded solubility belonging to COc1cccc(/C=N/N(C(=O)C(F)(F)F)c2ccc(C)cc2C)c1 [Form J147] and report it.
> 80 mg/mL
